Sourced from patent US20250296971A1

# Tested Target: GIPR (CHO-K1-hGIPR cells) (Homo sapiens)
# Construct: host or cells: CHO-K1
# Sequence (P48546 22-466): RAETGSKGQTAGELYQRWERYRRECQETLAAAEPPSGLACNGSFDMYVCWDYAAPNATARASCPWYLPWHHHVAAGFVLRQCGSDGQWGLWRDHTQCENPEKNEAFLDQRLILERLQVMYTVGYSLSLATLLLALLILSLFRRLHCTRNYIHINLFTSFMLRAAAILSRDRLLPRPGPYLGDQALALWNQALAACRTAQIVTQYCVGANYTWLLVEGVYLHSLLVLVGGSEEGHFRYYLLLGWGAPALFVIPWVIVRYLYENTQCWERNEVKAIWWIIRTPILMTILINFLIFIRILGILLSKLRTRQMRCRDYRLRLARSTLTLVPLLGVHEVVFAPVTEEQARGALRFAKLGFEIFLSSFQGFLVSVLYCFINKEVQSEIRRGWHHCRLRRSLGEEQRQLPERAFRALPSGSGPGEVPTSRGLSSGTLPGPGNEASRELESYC
# Method Notes: FACS binding assay
# Run Conditions: competition with 20 nM GIP-057, 4° C. for 1 hour, read-out: pIC50 Category (converted)
*1 amine or outer side, *2 acyl side, *3 side chain or, on linkers, in order; H or OH if unused. Where a SMILES comes first, the peptide text is derived from it. Bridges are numbered along the chain shown (N, C = ends). [ ]: non-standard residue; d: D form. The star is where a group is joined. Maleimide(3,4-diyl) = O=C1NC(=O)C([*:2])=C1[*:1]; Trp(5-Cl) = N[C@@H](Cc1c[nH]c2ccc(Cl)cc12)C(=O)O; Phe(3,4-Cl2) = N[C@@H](Cc1ccc(Cl)c(Cl)c1)C(=O)O; Pyridine(2,6-diCH2) = c1cc(C[*:1])nc(C[*:2])c1; mXylylene = c1cc(C[*:1])cc(C[*:2])c1; Hyp = O=C(O)[C@@H]1C[C@@H](O)CN1; Cha = N[C@@H](CC1CCCCC1)C(=O)O; hCys = N[C@@H](CCS)C(=O)O; Thp = NC1(C(=O)O)CCOCC1; Bn = c1ccc(C*)cc1
Provide the recorded IC50 for the entries that follow.

GET IC50 | system: GIPR (CHO-K1-hGIPR cells) (Homo sapiens) | item: CC[C@H](C)[C@@H]1NC(=O)[C@H](CC(C)C)NC(=O)C2(CCOCC2)NC(=O)[C@@H](NC(=O)[C@@H](CC(C)C)NC(=O)[C@H](CCC(=O)O)NC(=O)[C@@H]2C[C@@H](O)CN2C(=O)[C@H](Cc2c[nH]c3ccc(Cl)cc23)NC(=O)[C@H](Cc2c[nH]c3ccccc23)NC(=O)[C@H](CC(=O)O)NC(C)=O)CCSC2=C(SC[C@@H](C(N)=O)NC1=O)C(=O)NC2=O [GIP-362] (Ac-DW[Trp(5-Cl)][Hyp]E[dL][hCys][Thp]LIC-NH2; linker 7-11 via Maleimide(3,4-diyl))
10 to 79.4 nM

Fill in: IC50 on GIPR (CHO-K1-hGIPR cells) (Homo sapiens), entry CC[C@H](C)[C@H](NC(=O)[C@H](CC(C)C)NC(=O)[C@H](C)NC(=O)[C@H](CSC)NC(=O)[C@H](CC(C)C)NC(=O)[C@H](CCC(=O)O)NC(=O)[C@@H]1CCCN1C(=O)[C@H](Cc1c[nH]c2ccccc12)NC(=O)[C@H](Cc1c[nH]c2ccccc12)NC(=O)[C@H](CC(=O)O)NC(=O)[C@H](Cc1ccc(O)cc1)NC(=O)[C@@H](N)CCSC)C(=O)N[C@@H](CSCc1ccccc1)C(N)=O [GIP-369] (H-MYDWWPELC(Me)ALIC(Bn)-NH2)
> 1000 nM

Given CC[C@H](C)[C@@H]1NC(=O)[C@H](CC(C)C)NC(=O)C2(CCOCC2)NC(=O)[C@@H](NC(=O)[C@@H](CC(C)C)NC(=O)[C@H](CCCCN)NC(=O)[C@@H]2C[C@@H](O)CN2C(=O)[C@H](Cc2c[nH]c3ccc(Cl)cc23)NC(=O)[C@H](Cc2c[nH]c3ccccc23)NC(=O)[C@H](CC(=O)O)NC(C)=O)CSCc2cccc(n2)CSC[C@@H](C(N)=O)NC1=O [GIP-375] (Ac-DW[Trp(5-Cl)][Hyp]K[dL]C[Thp]LIC-NH2; linker 7-11 via Pyridine(2,6-diCH2)) , report its IC50 on GIPR (CHO-K1-hGIPR cells) (Homo sapiens).
< 10 nM

Given CC[C@H](C)[C@@H]1NC(=O)[C@H](CC(C)C)NC(=O)[C@H](C)NC(=O)[C@@H](NC(=O)[C@H](CC(C)C)NC(=O)[C@H](CCC(=O)O)NC(=O)[C@@H]2CCCN2C(=O)[C@H](Cc2c[nH]c3ccccc23)NC(=O)[C@H](Cc2c[nH]c3ccccc23)NC(=O)[C@H](C)NC(=O)[C@H](Cc2ccc(O)cc2)NC(=O)[C@@H](N)CCSC)CSCc2cccc(c2)CSC[C@@H](C(N)=O)NC1=O [GIP-332] (H-MYAWWPELCALIC-NH2; linker 9-13 via mXylylene) , report its IC50 on GIPR (CHO-K1-hGIPR cells) (Homo sapiens).
> 1000 nM

Output reported IC50 of the compound CC[C@H](C)[C@@H]1NC(=O)[C@H](CC(C)C)NC(=O)C2(CCOCC2)NC(=O)[C@@H](NC(=O)[C@@H](CC(C)C)NC(=O)[C@H](CCC(=O)O)NC(=O)[C@@H]2C[C@@H](O)CN2C(=O)[C@H](Cc2ccc(Cl)c(Cl)c2)NC(=O)[C@H](Cc2ccc(Cl)c(Cl)c2)NC(=O)[C@H](CC(=O)O)NC(C)=O)CSCc2cccc(n2)CSC[C@@H](C(N)=O)NC1=O [GIP-323] (Ac-D[Phe(3,4-Cl2)][Phe(3,4-Cl2)][Hyp]E[dL]C[Thp]LIC-NH2; linker 7-11 via Pyridine(2,6-diCH2)) on GIPR (CHO-K1-hGIPR cells) (Homo sapiens).
100 to 794 nM

Jot down IC50 (GIPR (CHO-K1-hGIPR cells) (Homo sapiens)) of CC[C@H](C)[C@@H]1NC(=O)[C@H](CC2CCCCC2)NC(=O)C2(CCOCC2)NC(=O)[C@@H](NC(=O)[C@@H](CC(C)C)NC(=O)[C@H](CCC(=O)O)NC(=O)[C@@H]2C[C@@H](O)CN2C(=O)[C@H](Cc2c[nH]c3ccc(Cl)cc23)NC(=O)[C@H](Cc2c[nH]c3ccccc23)NC(=O)[C@H](CC(=O)O)NC(C)=O)CSCc2cccc(n2)CSC[C@@H](C(N)=O)NC1=O [GIP-383] (Ac-DW[Trp(5-Cl)][Hyp]E[dL]C[Thp][Cha]IC-NH2; linker 7-11 via Pyridine(2,6-diCH2)) .
< 10 nM

Provide IC50, recorded with GIPR (CHO-K1-hGIPR cells) (Homo sapiens), of CC[C@H](C)[C@@H]1NC(=O)[C@H](CC(C)C)NC(=O)[C@@H](C)NC(=O)[C@@H](NC(=O)[C@H](CC(C)C)NC(=O)[C@H](CCC(=O)O)NC(=O)[C@@H]2CCCN2C(=O)[C@H](Cc2c[nH]c3ccccc23)NC(=O)[C@H](Cc2c[nH]c3ccccc23)NC(=O)[C@H](CC(=O)O)NC(=O)[C@H](Cc2ccc(O)cc2)NC(=O)[C@@H](N)CCSC)CSCc2cccc(c2)CSC[C@@H](C(N)=O)NC1=O [GIP-248] (H-MYDWWPELC[dA]LIC-NH2; linker 9-13 via mXylylene)
10 to 79.4 nM
